Hello, the source for this data is patent US20250027068, in case you need it.

Reported values of log10 of Enzyme Activity Endpoint Assay (purified): Fab'2 for individual entries
Biological target: pooled human IgG (human IgG1,2,3 and 4)
Scale: decimal log of Enzyme Activity Endpoint Assay (purified): Fab'2, Enzyme Activity Endpoint Assay (purified): Fab'2 in ng/µL.

# Protein, Observed result
measured = [
    ("PRT-319 (protein) MTITSVWTKGVTPPTPEDFRENNEDVLHAPYVANQGWYDITKTFDGKDNLLCGAATAGNMLHWWFDQNKEEIERYLKKHPEKQKIIFNNQELFDVKAAIDTKDSQTNSKLFDYFRDKAFPNLSARQLGVMPDLVLDMFINGYYLNLGKTQSTDVNRPYQDKDKRGGIFDAVFTRGDQTTLLTARHDLKNKGLNEISDLIKQELTEGKALALSHTYANVRINHVINLWGADFDAEGNLIAIYVTDSDANASIGMKKYFVGRNANGKVAISAKKIEGDNIGAQVLGLFTLSLGQDIWQKLS", 2.83),
]

Which log10 of Enzyme Activity Endpoint Assay (purified): Fab'2 value is on record for PRT-367 (protein) MSQTEDSESLQRLRDIEDFQAEKEKQNVVYTKWLDGVDVKDHDFRKIVDGNSAYYATPLLNGRGWYDINKDFNRDNDKCAAAVAANMFHYWLDRNRDNVDRFLRQNPEKHGIIELPDGQLKLSDFLNTYESDDGYRDKSKLFDFISNNFNGPVWTDKLLDNYINGYAYNYKYGRTIEDSTKNTSKINFFKEVFNEKILTNNHSIRNQNEFSVLLSEALYTGKAIGLSYGPAGLRHSLGHIISVWGADLDADGNVVAIYVTDSDDKKLTIGDERVGLKRYKISTDDEGRLRLTAYEETHNTGGQVRGLWTLDTGKQAWADYFDKTEQTGTDQAEQ ?
2.55

Which log10 of Enzyme Activity Endpoint Assay (purified): Fab'2 value is on record for PRT-304 (protein) MVTSVWTKGVTPPTDFIKGEDVFHAPYDAGQGWYDITKTFNGKDDLLCGAATAGNMLHWWFDQNKEYIEAYLKKHPEKQKIMFGDQELLDVRKAINTKGSQKNSELFNYFRDKAFPNLSARRLGVMPDLVLDMFINGYYLNVTKTQTTDVNRTYQEKDKRGGIFDAVFTRGDQSKLLTSRHDFKEKGLKEISDLIKQELTEGKALGLSHTYANVRISHVINLWGADFDSDGNLKAIYVTDSDSNASIGMKKYFVGVNSSGKVAISAKEIKEDNIGAQVLGLFTLSTGQDIWNQTN ?
2.85
